- system_under_test: Histone deacetylase 8 (Homo sapiens)
- Sequence (Q9BY41 whole entry): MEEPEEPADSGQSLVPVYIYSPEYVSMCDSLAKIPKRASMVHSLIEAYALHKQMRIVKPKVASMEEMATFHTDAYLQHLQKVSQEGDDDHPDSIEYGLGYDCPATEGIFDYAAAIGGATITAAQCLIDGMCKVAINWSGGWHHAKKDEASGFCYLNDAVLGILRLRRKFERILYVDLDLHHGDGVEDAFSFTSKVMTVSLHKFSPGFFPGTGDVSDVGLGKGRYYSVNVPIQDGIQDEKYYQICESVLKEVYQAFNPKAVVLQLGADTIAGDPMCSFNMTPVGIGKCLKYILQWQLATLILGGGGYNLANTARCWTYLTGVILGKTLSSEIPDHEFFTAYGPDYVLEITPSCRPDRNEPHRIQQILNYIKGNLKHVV
- experiment: Inhibition of HDAC8 (unknown origin) using Boc-Lys(TFA)-AMC as substrate preincubated for 1 hr followed by substrate addition and measured after 15 mins by fluorescence based method
observed_property: IC50 (µM)
A number alone suffices; assume µM.

Which value of IC50 has been reported for `C[n+]1cccnc1Cl` in the records? 0.43

Entry under review: `Cn1cc[n+](C)c1Br` . Reported IC50? 0.33

IC50 for `C[n+]1ccc(Cl)cc1` ? 6.5

Give the measured IC50 of `Ic1ccncc1` . 4.61

Name the recorded IC50 for `C[n+]1ccnc(Br)c1` . 27

I'd like to know its IC50. The molecule in question is `Cn1cc[n+](C)c1C#N` 22

Value lookup for IC50; key = `C[n+]1cccc(Br)c1` 8

Dear colleague, I am looking for the recorded IC50 of the following molecule: `C[n+]1cccnc1I` 0.152

Which IC50 is listed for `C#Cc1ccc[n+](C)c1` ? 8.2

Entry under review: `C[n+]1ccccc1C#N` . Reported IC50? 5.3
